Compound | melting point
COC(=O)N1CC1C(N)=O (stereo not given) | 117 to 120 °C
O=C(NC(Cc1c[nH]cn1)C(=O)NC(Cc1ccc(OCc2ccccc2)cc1)C(=O)NCCOCc1ccccc1)OCc1ccccc1 (stereo not given) | 161 to 165 °C
CCNc1cccnc1N1CCN(C(=O)c2ccc(C(=O)OC)cc2)CC1 | 96 to 97 °C
CCCn1c(C(=O)OC)cc(=O)c2oc3ccc(Cl)cc3c(=O)c21 | 240 to 244 °C
CN1CC2Cc3cc4c(cc3C(c3ccc([N+](=O)[O-])cc3)=NN2C1=O)OCO4 (stereo not given) | 252 to 255 °C
CCCCCCCCCCCCCCCCCCOc1cccc(N(CC(=O)O)CC(=O)O)c1 | 130 to 133 °C
O=C1c2ccccc2CN1c1cccc(CCN2CCN(c3nsc4ccccc34)CC2)c1 | 154 to 155 °C
Cc1ccc2c(C(=O)O)cn(C(C)C)c2c1 | 185 to 186 °C
CCCC(=CC(=O)O)CCC | 20 °C
O=C1Cc2ccccc2Sc2c1ccc(Cl)c2Cl | 133 to 135 °C
C[C@@H]1Cc2ccsc2[C@H](C)N1CCCNS(=O)(=O)c1ccc(N)cc1 (relative stereo) | 134 to 138 °C
CCC(C)(C)c1ccc(OCC(=O)Nc2cccc(C(C)=O)c2)c(C(C)(C)CC)c1 | 135 °C
CCOC(=O)c1csc(Nc2ccc(C)cn2)n1 | 198 to 200 °C
Cc1cc(-c2nnc3c4ccccc4c(OCc4cn(C)cn4)nn23)no1 | 208 to 209 °C
NCc1cn(C2CCc3ccccc3C2)c(=S)[nH]1 (stereo not given) | 197 to 200 °C
Cc1cccc(-c2[nH]c(C(C)C)nc2-c2ccc(F)c(-c3ccc4c(c3)CCS4(=O)=O)c2)n1 | 119 to 123 °C
CCCCCCCCCCCCCCCCCCOc1ccc(C(=O)O)c(OCCCOc2ccc(O)cc2)c1 | 97 to 100 °C
O=C(c1ccc(O)cc1)c1c(-c2ccc(O)cc2)sc2ccccc12 | 90 °C
CC(C)(O)Cn1c(Oc2ccc(-n3c4ncccc4n4ccnc34)cc2)nc2ccccc21 | 208 to 211 °C
O=c1[nH]c2cc(Cl)ccc2c(=O)cc1NCCc1ccccc1 | 284 to 287 °C
CCC(=C(c1ccccc1)c1ccc(OCC2CO2)cc1)C1CCCC1 (stereo not given) | 79 to 82 °C
C[C@@H]1NC(=O)O[C@H]1c1ccc(C(C)(C)C)cc1 | 199 to 200 °C
COc1cc(N)c(Cl)cc1C(=O)NCC1CCN(CCCCCC(=O)c2ccc3ccccc3c2)CC1 | 113 to 116 °C
C=CCN(c1nc(-c2cc3ccccc3[nH]c2=O)cs1)S(=O)(=O)c1ccccc1 | 214 to 216 °C
Cn1nnnc1SCCCC(=O)c1ccccc1 | 57.5 to 58 °C
CCC=Cc1nc2ccccc2n1Cc1ccc(C#N)cc1 | 125 °C
Cc1cc(-c2noc(CS(C)(=O)=O)n2)ccc1Br | 130 to 132 °C
CCOc1cc(C(CC#N)N2C(=O)c3cccc(N)c3C2=O)ccc1OC (stereo not given) | 171 to 172 °C
CC(C)CC(=O)N[C@H]1CC[C@H](CCN2CCN(c3nccc4c3CCO4)CC2)CC1 | 202 °C
CCNC(=S)NC1CCC(=O)c2ccccc21 (stereo not given) | 134 to 138 °C
CCCCOc1ccccc1-c1ncc(-c2nnn[nH]2)c(=O)[nH]1 | 244 to 247 °C
CC(=O)N1CCCc2c1n(-c1ccccc1)c1c(c2=O)CCc2ccccc2-1 | 178 to 182 °C
CCN(CC)CC#CCNC(=O)C(O)(c1ccccc1)C1CCCCC1 (stereo not given) | 102 to 104 °C
CC(C)CC1(CCCCN2CCN(c3cccc4c3OCCO4)CC2)C(=O)Nc2ccccc21 (stereo not given) | 152 to 154 °C
COc1ccc(CNc2c(C)c(C)c3c(c2C)C(c2ccc(F)cc2)C(C)(C)O3)cc1 (stereo not given) | 114 to 115 °C
O=C(Nc1cc(-c2ccc(Cl)cc2)on1)c1c(Cl)cccc1Cl | 228 to 229 °C
Cn1nc2ccccc2c1S(N)(=O)=O | 181 to 183 °C
N#Cc1ncn2c(C(F)(F)F)cc(-c3ccc(OCC(F)(F)F)c(C(F)(F)F)c3)nc12 | 189 °C
CCCCOC(=O)NS(=O)(=O)CCc1c(C(F)(F)F)nn(C)c1-n1ccc2cc(Cl)cnc21 | 136 to 137 °C
C[C@H](c1ccncn1)[C@@](O)(CO)c1ccc(F)cc1F | 148 to 150 °C

###

Measured parameter: melting point

Compound | Result
N#Cc1c(Cl)c2cc(F)ccc2n(Cc2ccc(F)cc2)c1=O | 236 °C
NS(=O)(=O)c1cccc(-c2cc(-c3nc(-c4ccc(C(F)(F)F)c(OCC(F)(F)F)c4)cc(C(F)(F)F)n3)ccn2)c1 | 211 °C
O=C1C=CC(O)(c2ccccn2)C=C1 | 116 to 117 °C
CC(C)c1cccc(C(C)C)c1NC(=O)NCC1=CCCc2ccccc21 | 170 to 171 °C
COc1cc(C(=O)c2c(-c3ccc(OCCN4CCCC4)cc3)sc3ccc(O)cc23)ccc1CN1CCCC1 | 95 to 99 °C
C=CCNc1nc2c(c(N3CCN(C)CC3)n1)CCCN2CC=C | 81 °C
c1ccc2c(N3CCOCC3)nc(N3CCOCC3)nc2c1 | 172 to 174 °C
NC(CNCCO)(CC(=O)O)c1ccccc1 (stereo not given) | 140 to 143 °C
CCc1cccc2c3c([nH]c12)C(CC)(CCOC(C)=O)OCC3 (stereo not given) | 126 to 127 °C
CC(C)CC(C(=O)O)N(C)C(C)C (stereo not given) | 159 to 160 °C

###

Compound | melting point
COc1c2c(c(OC)c(OC)c1OC)CC(CCCCOc1ccc(C(=O)O)cc1)C2 | 136 to 138 °C
O=C(c1ccc([N+](=O)[O-])cc1)N1Cc2ccccc2C(c2ccccc2Cl)c2ccccc21 (stereo not drawn) | 178 to 181 °C
CC(CCOS(C)(=O)=S)(C(=O)O)C(=O)O (stereo not drawn) | 109 to 111 °C
N#Cc1cccc(Cc2c(-c3ccc(OC(F)F)c(OC4CC4)c3)[nH]c3cn[nH]c(=O)c23)c1 | 130 to 135 °C
ClC1(c2cccs2)CC1c1ccccc1 (stereo not drawn) | 61 to 63 °C
CCCCOC(=O)C(c1ccc(O)c(C(C)(C)C)c1)c1ccc(O)c(C(C)(C)C)c1 | 124 °C
CC(C)[C@H](NC(=O)OCc1ccccn1)C(=O)N[C@@H](Cc1ccccc1)[C@@H](O)[C@H](O)[C@H](Cc1ccccc1)NC(=O)[C@@H](NC(=O)OCc1ccccn1)C(C)C | 220 to 223 °C
COc1c(C(C)(C)C)cc(COc2cccc(C=C3SC(=S)NC3=O)c2)cc1C(C)(C)C | 239 to 243 °C

###

Listed here: items and their measured melting point.
Measured parameter: melting point

Molecule | Result
CC1(C)Cc2ccc(C(F)(F)F)c(C#N)c2O1 | 79 to 83 °C
CCCCCCCCCCCCCCCCCC(=O)NCCO | 96 to 99 °C
COC(=O)c1ccc(NC(=O)c2ccc(-c3ccccc3)cc2)cc1 | 247 to 251 °C
OC12CC3CC(C1)CC(NC(c1ccccc1)(c1ccccc1)c1ccccc1)(C3)C2 | 184 to 186 °C
COc1cc(-n2cccn2)ccc1-n1cc(OC)c(=O)c(-c2ccnn2-c2cccc(C(F)(F)F)c2)n1 | 215 to 217 °C
CC1(C)OC(=O)C(Oc2ccc(Cl)c(Cl)c2)=C1c1ccc(S(C)(=O)=O)cc1 | 144 to 145 °C
CC(C)n1nc(-c2cc(NC(=O)OC(C)(C)C)cnc2-c2ccccc2)ccc1=O | 221 to 223 °C
CCCCCCCCCCCC(O)CC(=O)C(CCCCCC)C(=O)OC (stereo not given) | 38 to 39 °C
CC1(C)C(=O)N(c2ccc([N+](=O)[O-])c(C(F)(F)F)c2)C(=O)N1CCCCCN1C(=O)N(c2ccc([N+](=O)[O-])c(C(F)(F)F)c2)C(=O)C1(C)C | 163 to 164 °C
Cc1cccc(O[C@@H]2CCN(S(C)(=O)=O)CC[C@H]2O)c1C (relative stereo) | 112 to 115 °C
CC(C)c1cc(Cl)cc(C(C)C)c1NC(=O)NS(=O)(=O)c1cccc(C(C)(C)O)c1 | 160 to 162 °C
CC(=O)Nc1ccn(C2OC(COC(C)=O)C(OC(C)=O)C2O[N+](=O)[O-])c(=O)n1 (stereo not given) | 160 to 161 °C
O=C(O)C(CCN1C(=O)c2ccccc2C1=O)CS(=O)(=O)c1ccc(-c2ccccc2)cc1 (stereo not given) | 180 °C
NC(=O)c1cc([N+](=O)[O-])cnc1C(Br)Br | 156 to 158 °C
Cc1oc(-c2ccco2)nc1COc1ccc(CCl)cn1 | 95 to 96 °C
CC(C)(C)OC(=O)NCCCn1cnc2c(N)nc3ccccc3c21 | 196 to 198 °C
Oc1nccc2ccncc12 | 260 to 262 °C
Cn1c(-c2ccccc2F)nnc1S(C)(=O)=O | 128 to 130 °C
CCOC(=O)c1cc(OC(C)=O)c2cc(N3CCOCC3)ccc2c1 | 135 to 137 °C
Cc1cc(C)nc(NC(=O)Cc2cccn2C)c1 | 85 °C
